target: SRC (Homo sapiens); assay: Inhibition of a panel of kinases, in vitro HotSpot kinase assay: SRC; type: biochemical; conditions: D-compounds panel data; 1 μM ATP
Sequence (P12931 whole entry): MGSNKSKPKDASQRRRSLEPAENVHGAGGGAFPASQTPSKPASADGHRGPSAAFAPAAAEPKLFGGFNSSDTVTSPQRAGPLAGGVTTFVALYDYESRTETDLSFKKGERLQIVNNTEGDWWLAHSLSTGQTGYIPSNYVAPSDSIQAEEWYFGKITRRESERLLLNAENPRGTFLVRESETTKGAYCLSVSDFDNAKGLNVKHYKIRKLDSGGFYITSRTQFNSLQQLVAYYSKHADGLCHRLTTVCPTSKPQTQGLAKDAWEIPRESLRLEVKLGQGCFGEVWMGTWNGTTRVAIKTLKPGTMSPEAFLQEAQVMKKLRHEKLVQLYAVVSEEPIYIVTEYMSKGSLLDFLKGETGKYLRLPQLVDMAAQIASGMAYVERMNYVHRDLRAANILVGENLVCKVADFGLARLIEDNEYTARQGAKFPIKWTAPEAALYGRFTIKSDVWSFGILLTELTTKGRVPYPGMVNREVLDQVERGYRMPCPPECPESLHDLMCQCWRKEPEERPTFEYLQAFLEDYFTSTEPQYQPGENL
Below, each of the compounds is paired with its reported IC50 value.

Worked set:
compound="C[C@@H]1[C@H](NC(=O)c2ccc(C3CC3)cc2)CCCN1c1nnc(C(N)=O)c(Nc2cnn(C)c2)n1 [Example D-277]" measurename=IC50 endpointvalue="10 to 100 nM"
compound="C[C@@H]1[C@H](NC(=O)c2ccc3ncsc3c2)CCCN1c1cnc(C(N)=O)c(Nc2cnn(C)c2)n1 [Example D-243]" measurename=IC50 endpointvalue="10 to 100 nM"
compound="CC(=O)N1CCC(n2cc(Nc3nc(N4CCC[C@@H](NC(=O)c5ccc(C6CC6)cc5)[C@H]4C)cnc3C(N)=O)cn2)CC1 [Example D-283]" measurename=IC50 endpointvalue="10 to 100 nM"

Proceed to the following item.
According to the records, this compound CC(C)c1ccc(C(=O)N[C@@H]2CCCN(c3cnc(C(N)=O)c(Nc4cnn(C)c4)n3)C2)cc1 [Example D-222] displays IC50 of 1000 to 10000 nM
